Recorded normalized growth for the following molecules
assayNotes: chemical genetic growth profiling, strain panel (AID 1159580);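 further: tested at 20 µM; growth read once vehicle control cultures reached saturation at 30 °C; 1 = growth at the plate median or of vehicle wells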
measurementContext: S. cerevisiae deletion strains, growth OD, locus YGL248W, strain PDE1, stronger effect = lower value
The campaign covered roughly 5,500 compounds. About 2,000 (36%) were called active. Inconclusive results (about 18%) are left out. The list shows a part of the results.
Lab note: write the figure by itself, no unit.

Look over these answered cases.
Query block: Give the measured normalized growth of "COC(=O)c1cc(OC)c(=O)c2c(OC)c(OC)ccc2c1" .
Result block: 1.02

Query block: Follow-up item: "CC(=O)Nc1c(I)cc(I)c(C(=O)O)c1I"
Result block: 0.986

Query block: Follow-up item: "NC(=NCCCCCCN=C(N)N=C(N)Nc1ccc(Cl)cc1)N=C(N)Nc1ccc(Cl)cc1"
Result block: 0.0464

Next:
Query block: Give the measured normalized growth of "O=C(CCc1ccc(O)cc1)c1c(O)cc(O)cc1O" .
Result block: 1

Query block: Follow-up item: COP(=O)(NC(C)=O)SC (configuration not stated)
Result block: 1

Query block: Follow-up item: "CN1CCC[C@H]1c1cccnc1"
Result block: 0.985

Query block: Follow-up item: "CC(C)N=C(N)N=C(N)Nc1ccc(Cl)cc1"
Result block: 1.02

----------
assayNotes: chemical genetic growth profiling, strain panel (AID 1159580)
measurementContext: S. cerevisiae deletion strains, growth OD, locus YDR334W, strain swr1
In all, about 5,500 compounds went through this assay and about 2,000 (36%) were called active. Inconclusive results (about 18%) are left out. Rule as the data show it: active = normalized growth mostly below about 0.91 (no sharp cut-off); inconclusive = no clear call, values can overlap the other calls; inactive = mostly above about 0.92. The list shows a part of the results.
Would you mind answering with one of these outcomes? active, inactive

Look over these answered cases.
Query block: What did this assay record as the result for "CNC(=O)N(C)c1nnc(C(C)(C)C)s1" ?
Result block: inactive

Query block: Follow-up item: "CC(C)[C@@H]1CC[C@@H](C)C[C@H]1OC(=O)c1ccccc1"
Result block: inactive

Query block: Follow-up item: "C/C(=C\CO)CC[C@H](C)CCC[C@H](C)CCCC(C)C"
Result block: active

Query block: Follow-up item: "CNC(=O)Oc1ccccc1OC(C)C"
Result block: inactive

# evaluate next
Query block: What did this assay record as the result for "COc1ccc(NS(=O)(=O)c2ccc(N)cc2)nn1" ?
Result block: inactive

----------
assayNotes: chemical genetic growth profiling, strain panel (AID 1159580)
measurementContext: S. cerevisiae deletion strains, growth OD, locus YPL204W, strain HRR25
Among all 5,500 compounds or so, about 2,000 (36%) were called active. Not shown: some 18% with an inconclusive outcome. No stated cut-off is given here; in the data, active means normalized growth mostly below about 0.91 (no sharp cut-off); inconclusive means no clear call, values can overlap the other calls; inactive means mostly above about 0.92. This is one part of the list.
Would you mind answering with one of these outcomes? Yes (active), No (inactive)

Look over these answered cases.
Query block: What did this assay record as the result for "CCOC(=O)c1cnc(-c2ccccn2)[nH]c1=O" ?
Result block: No

Query block: Follow-up item: "COc1ccc(OC)c2nc3c(nc12)C(=O)c1ccccc1-3"
Result block: No

Query block: Follow-up item: "S=C(NCCc1csc2ccccc12)Nc1ccc(Cl)cc1"
Result block: No

Query block: Follow-up item: "O=C1c2ccccc2C(=O)c2sccc21"
Result block: Yes

Query block: Follow-up item: "CC(=O)c1ccc(Sc2ccccc2)c([N+](=O)[O-])c1"
Result block: No

Query block: Follow-up item: "O=C(OCCNc1ccc([N+](=O)[O-])cn1)c1ccc([N+](=O)[O-])o1"
Result block: No

Query block: Follow-up item: CC1SC(c2cccnc2)N(c2ccc(F)cc2F)C1=O (stereo not given)
Result block: No

Query block: Follow-up item: CC1SC(c2cccnc2)N(c2ccc(Cl)cc2)C1=O (stereo not given)
Result block: Yes

Next:
Query block: What did this assay record as the result for "COC(=O)c1cccc(NS(=O)(=O)c2ccc(Cl)c(Cl)c2)c1" ?
Result block: No

Query block: Follow-up item: "O=C(Nc1cc(Cl)cc(Cl)c1)c1cc(Br)ccc1O"
Result block: No

Query block: Follow-up item: "COC(=S)Nc1cc(Cl)cc(Cl)c1"
Result block: Yes

Query block: Follow-up item: "O=C(Nc1cc(Cl)cc(Cl)c1)c1cc(Cl)ccc1O"
Result block: No

Query block: Follow-up item: "N/C(=N/OCc1c(F)cccc1Cl)c1ccc(Cl)cc1"
Result block: No

Query block: Follow-up item: "COc1cc(C2SCCS2)cc(Br)c1OC(=O)NC(=O)c1c(Cl)cccc1Cl"
Result block: No

Query block: Follow-up item: "CC(C)Sc1c(Cl)cccc1NC(=O)Nc1cccc(C(F)(F)F)c1"
Result block: No

Query block: Follow-up item: "Cc1cc(Sc2c([N+](=O)[O-])cc(C(F)(F)F)cc2[N+](=O)[O-])c(Cl)cc1Cl"
Result block: No

Query block: Follow-up item: "CC(C)(C)c1ccc(-c2cc(NC(=O)c3ccc(Cl)cc3)n[nH]2)cc1"
Result block: No

Query block: Follow-up item: CCOC(=O)C(NC(=O)c1cccc(Cl)c1)(Nc1nc2ccccc2s1)C(F)(F)F (stereo not given)
Result block: No

----------
assayNotes: chemical genetic growth profiling, strain panel (AID 1159580);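 further: tested at 20 µM; growth read once vehicle control cultures reached saturation at 30 °C; 1 = growth at the plate median or of vehicle wells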
measurementContext: S. cerevisiae deletion strains, growth OD, locus YHR205W, strain SCH9, stronger effect = lower value
About 2,000 (36%) of roughly 5,500 compounds were called active. Roughly 18% stayed inconclusive and do not appear here. This is one part of the list.
Classify: satisfied when normalized growth is strictly less than 0.7; not satisfied when normalized growth is not.

Look over these answered cases.
Query block: Given "CC(C)OC(=O)Nc1cc(Cl)cc(Cl)c1" , is recorded normalized growth strictly lower than 0.7?
Result block: not satisfied

Query block: Follow-up item: "Cc1cc(N=Cc2cc(Cl)cc(Cl)c2O)no1"
Result block: satisfied

Query block: Follow-up item: "CCOC(=O)c1ccc(N=Cc2cc(Cl)cc(Cl)c2O)cc1"
Result block: satisfied

Query block: Follow-up item: "Cn1ncc(-c2nc(-c3ccc(Cl)cc3)cs2)c1N"
Result block: not satisfied

Next:
Query block: Given "O=C(/C=C/c1ccc(Cl)cc1)Nc1cccc(Cl)c1" , is recorded normalized growth strictly lower than 0.7?
Result block: not satisfied

Query block: Follow-up item: "COC(=S)Nc1cc(Cl)cc(Cl)c1"
Result block: satisfied

Query block: Follow-up item: "FC(F)(F)c1ccncc1-c1nc(-c2ccc(Cl)cc2)cs1"
Result block: not satisfied

----------
assayNotes: chemical genetic growth profiling, strain panel (AID 1159580);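 further: tested at 20 µM; growth read once vehicle control cultures reached saturation at 30 °C; 1 = growth at the plate median or of vehicle wells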
measurementContext: S. cerevisiae deletion strains, growth OD, locus YGR040W, strain KSS1, stronger effect = lower value
The whole screen tested about 5,500 compounds, of which about 2,000 (36%) were called active. Another 18% or so got no clear call; they are omitted. The list shows a part of the results.
Recorded normalized growth for the following compounds
Lab note: write the figure by itself, no unit.

Look over these answered cases.
Query block: Give the measured normalized growth of "COc1ccc(Oc2ccc([N+](=O)[O-])cc2C(=O)O/N=C(/N)c2ccc(C(F)(F)F)cc2)cc1" .
Result block: 1

Query block: Follow-up item: "COc1cc(C2SCCS2)cc(Br)c1OC(=O)NC(=O)c1c(Cl)cccc1Cl"
Result block: 0.936

Query block: Follow-up item: "CCOC(=O)c1ccc(N=Cc2cc(Cl)cc(Cl)c2O)cc1"
Result block: 0.349

Query block: Follow-up item: "COC(=O)c1cc(I)c(OC(C)=O)c(I)c1"
Result block: 0.953

Query block: Follow-up item: COc1cc(C2CC(=S)Nc3ccccc3S2)cc(OC)c1OC (centres undefined)
Result block: 0.94

Query block: Follow-up item: "Cn1ncc(-c2nc(-c3ccc(Cl)cc3)cs2)c1N"
Result block: 0.785

Query block: Follow-up item: "Cc1csc2ncnc(N3CCN(C(=S)Nc4ccc(C(F)(F)F)cc4)CC3)c12"
Result block: 0.978

Query block: Follow-up item: "Cc1csc2c(N3CCN(C(=S)Nc4ccc(C(F)(F)F)cc4)CC3)ncnc12"
Result block: 0.959

Next:
Query block: Give the measured normalized growth of "Cc1cc(Sc2c([N+](=O)[O-])cc(C(F)(F)F)cc2[N+](=O)[O-])c(Cl)cc1Cl" .
Result block: 0.964

----------
assayNotes: chemical genetic growth profiling, strain panel (AID 1159580);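 further: tested at 20 µM; growth read once vehicle control cultures reached saturation at 30 °C; 1 = growth at the plate median or of vehicle wells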
measurementContext: S. cerevisiae deletion strains, growth OD, locus YDL017W, strain CDC7
The whole screen tested about 5,500 compounds, of which about 2,000 (36%) were called active. Roughly 18% stayed inconclusive and do not appear here. Rule as the data show it: active = normalized growth mostly below about 0.91 (no sharp cut-off); inconclusive = no clear call, values can overlap the other calls; inactive = mostly above about 0.92. The list shows a part of the results.
Would you mind answering with one of these outcomes? active, inactive

Look over these answered cases.
Query block: What did this assay record as the result for "Cc1oc(C(C)(C)C)cc1-c1cc(NC(=O)c2ccccc2)n[nH]1" ?
Result block: inactive

Query block: Follow-up item: "N/C(=N/OCc1c(F)cccc1Cl)c1ccc(Cl)cc1"
Result block: inactive

Query block: Follow-up item: "COc1ccc(OC)c2nc3c(nc12)C(=O)c1ccccc1-3"
Result block: inactive

Next:
Query block: What did this assay record as the result for "Cn1ncc(-c2nc(-c3ccc(Cl)cc3)cs2)c1N" ?
Result block: inactive

Query block: Follow-up item: "COC(=O)c1cc([N+](=O)[O-])ccc1S(=O)(=O)Cc1ccc(Cl)cc1"
Result block: inactive

Query block: Follow-up item: "CC(C)Sc1c(Cl)cccc1NC(=O)Nc1cccc(C(F)(F)F)c1"
Result block: inactive

Query block: Follow-up item: "CC(C)OC(=O)Nc1cc(Cl)cc(Cl)c1"
Result block: inactive

Query block: Follow-up item: "O=C(Nc1ccccc1Sc1ccc(C(F)(F)F)cc1[N+](=O)[O-])C(Cl)Cl"
Result block: inactive

Query block: Follow-up item: "COC(=O)c1sccc1S(=O)(=O)Nc1cc(C(F)(F)F)cc(C(F)(F)F)c1"
Result block: inactive

Query block: Follow-up item: "Cc1ccc2nc3c(nc2c1)-c1ccccc1C3=O"
Result block: inactive

Query block: Follow-up item: "O=S(=O)(Nc1cc(C(F)(F)F)cc(C(F)(F)F)c1)c1ccc(Cl)s1"
Result block: inactive

Query block: Follow-up item: COc1cc(C2CC(=S)Nc3ccccc3S2)cc(OC)c1OC (stereo not given)
Result block: inactive

Query block: Follow-up item: "COc1ccc(Oc2ccc([N+](=O)[O-])cc2C(=O)O/N=C(/N)c2ccc(C(F)(F)F)cc2)cc1"
Result block: inactive

Query block: Follow-up item: "O=C(NCc1ccc2c(c1)OCO2)c1cc2ccccc2s1"
Result block: active

Query block: Follow-up item: "S=C(NCc1cccs1)Nc1cc(Cl)cc(Cl)c1"
Result block: inactive
